Hey, just so you know, these numbers are from patent US4593090A.

Tested on: Leukemia L1210
Test: Activity against Leukemia L1210, intraperitoneal, increase in life span of mice
Type: in vivo, female mice (BDF1 family)
Conditions: ip; O.D./ILS30
Description: Tests were conducted in accordance with the method for measuring antitumor activity of National Cancer Center Tokyo (A, Hoshi et al, Farumashia 9 464 (1973)). […] An increase percentage of life span (ILS%) was calculated from said average survival days compared with those of the control group. […]
Note to self: Therapeutic ratio TR under 40 means TRUE, ties and anything higher get FALSE.

Recorded results for 2 molecules are shown here.
INSERT INTO measurements (molecule, classification) VALUES
  ('CCCCO[C@H]1O[C@H](CN(CCOCCO)C(=O)N(CCCl)N=O)[C@@H](O)[C@H](O)[C@H]1O', 'FALSE'),
  ('COC(C)CN(C[C@H]1O[C@H](OC(C)C)[C@H](O)[C@@H](O)[C@@H]1O)C(=O)N(CCCl)N=O (stereo partly drawn)', 'FALSE');

Enquiry: Given the entry "COCCCO[C@H]1O[C@H](CN(C(=O)N(CCCl)N=O)C2CCCCC2)[C@@H](O)[C@H](O)[C@H]1O" , would its reported Therapeutic ratio TR be below 40?
Return: FALSE

Enquiry: Identify whether the molecule COCC(C)N(C[C@H]1O[C@H](OC2CCCCC2)[C@@H](O)[C@@H](O)[C@H]1O)C(=O)N(CCCl)N=O (stereo partly drawn) records Therapeutic ratio TR below 40.
Return: FALSE

Enquiry: For this molecule, is Therapeutic ratio TR lower than 40? CCOCCN(C(=O)N(CCCl)N=O)C1C(OC2CCCCC2)OC(CO)C(O)C1O (stereo not drawn)
Return: FALSE

Enquiry: Threshold test, Therapeutic ratio TR < 40: CC(C)(C)N(C[C@H]1O[C@H](OC(c2ccccc2)C2CC2)[C@H](O)[C@@H](O)[C@@H]1O)C(=O)N(CCCl)N=O (stereo partly drawn)
Return: TRUE

Enquiry: Could you please tell me whether Therapeutic ratio TR recorded for "CCCCN(C[C@H]1O[C@H](OC2CCCCC2)[C@H](O)[C@@H](O)[C@H]1O)C(=O)N(CCCl)N=O" is less than 40?
Return: TRUE
